# protocol description: Growth inhibition of human MDA-MB-231 cells at 10 uM after 48 hrs by SRB assay relative to control
# Type: functional
# test conditions: MDA-MB-231, 48 h, read-out: GI
Is inhibition of growth at 10 µM at least 60%? Then true. If not, false.

COc1cc(CSc2nc3ccc(C)cc3c(=O)n2-c2ccccc2)cc(OC)c1OC true
COc1cc(CSc2nc3ccc(C)cc3c(=O)n2Cc2ccccc2)cc(OC)c1OC false
COc1ccccc1-n1c(SCc2cc(OC)c(OC)c(OC)c2)nc2ccc(Cl)cc2c1=O false
COc1ccc(-n2c(SCc3cc(OC)c(OC)c(OC)c3)nc3ccc(C)cc3c2=O)cc1 false

Hi team, for COc1cc2nc(SCc3cc(OC)c(OC)c(OC)c3)n(Cc3ccccc3)c(=O)c2cc1OC , is the recorded inhibition of growth at 10 µM at or above 60%?
true
